From: ChEMBL document CHEMBL5724796

target: Bromodomain-containing protein 4 (Homo sapiens) (UniProt O60885); conditions: Compound concentration 20.0 uM
y means recorded ΔTm is -1 °C or above; n means it is below -1 °C.

> print(dat)
                                    molecule  class.assignment
 1  CC(=O)N[C@@H](C)C(=O)N[C@@H](CCC(=O)O)C(=O)N[C@H](C(=O)N[C@@H](C=O)CC(=O)O)C(C)C                 n
 2  CC(C)c1c(-c2cnn(C(C)(C)C)c2)[nH]c2c(C#N)cnn2c1=O                 n
 3  O=C(Oc1cccc(F)c1OC(=O)c1cccc(O)c1)c1cccc(O)c1                 y
 4    C=CC(=O)Nc1cccc(-c2c[nH]cc2CN(C)CCN)c1                 n
 5  CS(=O)(=O)c1ccc(-c2nnc(C=Cc3nnc(-c4ccc(C#N)cc4)o3)n2-c2ccccc2Cl)nc1                 n
 6  CNc1nccc(CN([C@H]2CC[C@H](N)CC2)S(=O)(=O)c2ccc(S(=O)(=O)N(Cc3ccc(Cl)cc3)C3CCCC3)cc2)n1                 n
 7          CCCSc1nc2c(c(=O)n1-c1ccccc1)SCC2                 y
 8    CN(C)Cc1ccc(-c2nc3cccc4c3n2CCNC4=O)cc1                 y
 9  O=[N+]([O-])c1c(Nc2cc(F)cc(Cl)c2)ccc2nonc12                 n
10  CN1CCN(c2ccc3nc(-c4c(N)c5c(F)cccc5[nH]c4=O)[nH]c3c2)CC1                 y
11  NS(=O)(=O)c1cc(-c2nnn[nH]2)c(NCc2cccs2)cc1Cl                 n
12  Nc1ccccc1NC(=O)c1ccc(CNc2nccc(-c3cccnc3)n2)cc1                 n
13         C=CCc1cccc(CNc2nc3ccccc3n2CCC)c1O                 n
14  O=C(c1cc(Cc2n[nH]c(=O)c3ccccc23)ccc1F)N1CCn2nc(C(F)(F)F)nc2C1                 n
15  Cn1ncnc1[C@H]1C2=c3c(cc(F)cc3=N[C@@H]1c1ccc(F)cc1)C(=O)NN2                 y
16  COc1ccc(CC[C@H]2CCC[C@@H](CCc3ccc(OC)cc3)N2C[C@@H](O)CO)cc1                 n
17  CCc1nc2c(C)cc(N3CCN(CC(=O)N4CC(O)C4)CC3)cn2c1N(C)c1nc(-c2ccc(F)cc2)c(C#N)s1                 y
18  O=C(NC1CCC1)c1ccc2nc(-c3cccc(NS(=O)(=O)NCCN4CCCCC4)c3)cn2c1                 n
19  CN1CCN(c2nc(-c3ccc(C(=O)NC4(C(=O)NCC#N)CCCCC4)cc3)cs2)CC1                 y
